Tested On: Cytochrome P450 1A2 (Homo sapiens, UniProt P05177)
Sequence (P05177 whole entry): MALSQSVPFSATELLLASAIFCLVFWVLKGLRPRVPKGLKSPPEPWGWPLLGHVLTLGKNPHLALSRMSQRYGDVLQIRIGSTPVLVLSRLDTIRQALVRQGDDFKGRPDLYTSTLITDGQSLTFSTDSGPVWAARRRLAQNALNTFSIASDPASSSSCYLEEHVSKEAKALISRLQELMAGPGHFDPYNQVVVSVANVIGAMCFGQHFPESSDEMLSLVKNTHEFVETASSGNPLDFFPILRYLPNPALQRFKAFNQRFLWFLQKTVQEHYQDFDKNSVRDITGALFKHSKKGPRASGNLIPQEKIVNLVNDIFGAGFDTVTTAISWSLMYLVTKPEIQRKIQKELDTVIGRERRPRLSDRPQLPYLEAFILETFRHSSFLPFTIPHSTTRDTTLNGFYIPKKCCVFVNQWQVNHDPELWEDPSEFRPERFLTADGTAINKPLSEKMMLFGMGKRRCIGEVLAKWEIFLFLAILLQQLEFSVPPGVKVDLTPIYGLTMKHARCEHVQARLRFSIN
Run Description: Inhibition of human recombinant CYP1A2 using 7-ethoxyresorufin as substrate incubated under dark condition for 45 mins in presence of NADPH by EROD fluorescence assay
Metric Name: log10(IC50) (log10 of the value in nM)

                        structure_as_smiles  metric_name  result_value
0    O=C(Nc1ccc(I)cc1)c1nc(-c2ccc(F)cc2)cs1  log10(IC50)          2.81
1  COc1cc(NC(=O)c2nc(-c3ccccc3F)cs2)cc(OC)c1  log10(IC50)          3.16
2       O=C(Nc1ccc(I)cc1)c1nc(-c2ccccc2)cs1  log10(IC50)          2.18
3  Cc1sc(C(=O)Nc2ccc(OC(F)F)cc2)nc1-c1cccc(F)c1  log10(IC50)          3.43
4  Cc1sc(C(=O)Nc2cc(Cl)cc(Cl)c2)nc1-c1cccc(F)c1  log10(IC50)          3.15
5    O=C(Nc1ccc(Cl)cc1Cl)c1nc(-c2ccccc2)cs1  log10(IC50)          2.69

###

Species on record: Homo sapiens
Run Description: Selectivity index, ratio of IC50 for human recombinant CYP1A2 to IC50 for human recombinant CYP1B1 using 7-ethoxyresorufin as substrate
Recorded Ratio IC50 values for a group of molecules are listed next.
Metric Name: Ratio IC50

>>> df
                         structure_as_smiles  metric_name  relation  result_value
 0  CCc1sc(C(=O)Nc2cc(Cl)cc(Cl)c2)nc1-c1ccc(F)cc1   Ratio IC50         >           990
 1  O=C(Nc1cc(Cl)cc(Cl)c1)c1nc(-c2ccc(F)cc2)c(-c2ccccc2)s1   Ratio IC50         >          93.7
 2  COc1cc(NC(=O)c2nc(-c3ccccc3F)cs2)cc(OC)c1   Ratio IC50         =          86.5
 3   O=C(Nc1ccc(F)cc1F)c1nc(-c2ccc(F)cc2)cs1   Ratio IC50         =           230
 4  CC(=O)Nc1ccc(-c2csc(C(=O)Nc3cc(Cl)cc(Cl)c3)n2)cc1   Ratio IC50         >           413
 5  NC(=O)c1ccc(-c2csc(C(=O)Nc3ccc(OC(F)F)cc3)n2)cc1   Ratio IC50         =          5590
 6  O=C(Nc1ccc(Cl)cc1Cl)c1nc(-c2cccc(F)c2)cs1   Ratio IC50         =          1240
 7  Cc1sc(C(=O)Nc2cc(Cl)cc(Cl)c2)nc1-c1cccc(Cl)c1   Ratio IC50         >          5850
 8  NC(=O)c1cccc(-c2csc(C(=O)Nc3cc(Cl)cc(Cl)c3)n2)c1   Ratio IC50         >          8640
 9  COc1ccc(OC)c(NC(=O)c2nc(-c3ccccc3)cs2)c1   Ratio IC50         =          27.8
10  N#Cc1ccc(-c2csc(C(=O)Nc3cc(Cl)cc(Cl)c3)n2)cc1   Ratio IC50         >         56400
11  O=C(Nc1cc(Cl)cc(Cl)c1)c1nc(-c2ccnc(Cl)c2)cs1   Ratio IC50         >         23400
12  COc1cc(NC(=O)c2nc(-c3cccc(F)c3)cs2)cc(OC)c1   Ratio IC50         =           993
13  Cc1sc(C(=O)Nc2ccc(C(F)(F)F)cc2)nc1-c1cccc(Cl)c1   Ratio IC50         >          5320
14  O=C(Nc1ccc(C(F)(F)F)cc1)c1nc(-c2ccc(Cl)cc2)cs1   Ratio IC50         =           510
15    O=C(Nc1ccc(I)cc1)c1nc(-c2cccc(F)c2)cs1   Ratio IC50         =           225
16       Cc1ccc(NC(=O)c2nc(-c3ccccc3)cs2)cc1   Ratio IC50         =          27.1
17  NC(=O)c1cccc(-c2csc(C(=O)Nc3ccc(C(F)(F)F)cc3)n2)c1   Ratio IC50         =          2640
18  NC(=O)c1cccc(-c2csc(C(=O)Nc3ccc(OC(F)F)cc3)n2)c1   Ratio IC50         =          2490
19  O=C(Nc1cc(Cl)cc(Cl)c1)c1nc(-c2ccc(I)cc2)cs1   Ratio IC50         =            71
20  COc1ccc(-c2csc(C(=O)Nc3cc(Cl)cc(Cl)c3)n2)cc1   Ratio IC50         =          77.6
21  O=C(Nc1cc(Cl)cc(Cl)c1)c1nc(-c2cccc(F)c2)cs1   Ratio IC50         =          1880
22  O=C(Nc1cc(Cl)cc(Cl)c1)c1nc(-c2ccc(-c3ccccc3)cc2)cs1   Ratio IC50         =           6.5
23  O=C(Nc1ccc(C(F)(F)F)cc1)c1nc(-c2ccc(F)cc2)cs1   Ratio IC50         =           567
24  Nc1ccc(-c2csc(C(=O)Nc3cc(Cl)cc(Cl)c3)n2)cc1   Ratio IC50         =          58.7
25  NC(=O)c1ccc(-c2csc(C(=O)Nc3cc(Cl)cc(Cl)c3)n2)cc1   Ratio IC50         >          1250
26  O=C(Nc1ccc(C(F)(F)F)cc1)c1nc(-c2cccc(Cl)c2)cs1   Ratio IC50         =          1270
27  N#Cc1cccc(-c2csc(C(=O)Nc3ccc(OC(F)F)cc3)n2)c1   Ratio IC50         >          5550
28  O=C(Nc1cc(Cl)cc(Cl)c1)c1nc(-c2ccc([N+](=O)[O-])cc2)cs1   Ratio IC50         =          1400
29  O=C(Nc1ccc(OC(F)F)cc1)c1nc(-c2ccc(Cl)cc2)cs1   Ratio IC50         =           368
30  O=C(Nc1ccc(C(F)(F)F)cc1)c1nc(-c2ccccc2)cs1   Ratio IC50         =           952
31  O=C(Nc1ccc(-n2ccnc2)cc1)c1nc(-c2ccccc2)cs1   Ratio IC50         =           1.6
32  O=C(Nc1ccc(C(F)(F)F)cc1)c1nc(-c2cccc(F)c2)cs1   Ratio IC50         =          1470
33  O=C(Nc1ccc(OC(F)F)cc1)c1nc(-c2ccc(F)cc2)cs1   Ratio IC50         =          1730
34     N#Cc1ccc(NC(=O)c2nc(-c3ccccc3)cs2)cc1   Ratio IC50         =          73.4
35  Cc1ccccc1-c1csc(C(=O)Nc2cc(Cl)cc(Cl)c2)n1   Ratio IC50         =           9.7
36  O=C(Nc1cc(Cl)cc(Cl)c1)c1nc(-c2ccccc2F)cs1   Ratio IC50         =           147
37  N#Cc1cccc(-c2csc(C(=O)Nc3ccc(C(F)(F)F)cc3)n2)c1   Ratio IC50         >         34100
38  O=C(Nc1cc(Cl)cc(Cl)c1)c1nc(-c2ccc(Br)cc2)cs1   Ratio IC50         =           167
39  Cc1sc(C(=O)Nc2ccc(C(F)(F)F)cc2)nc1-c1cccc(F)c1   Ratio IC50         =          1100
40  N#Cc1ccc(-c2csc(C(=O)Nc3cc(Cl)cc(Cl)c3)n2)cn1   Ratio IC50         =           481
41  CC(C)c1ccc(-c2csc(C(=O)Nc3cc(Cl)cc(Cl)c3)n2)cc1   Ratio IC50         =          34.5

###

Run Description: AUC (0 to infinity) in male Sprague-Dawley rat at 10 mg/kg, po measured up to 24 hrs by LC-MS/MS analysis
Assay type: ADME, organism-based
Condition Notes: in vivo
Metric Name: AUC(0-inf) (ng·h/mL)

In [3]: df
Out[3]:
                        structure_as_smiles  metric_name  result_value
0  O=C(Nc1cc(Cl)cc(Cl)c1)c1nc(-c2cccc(Cl)c2)cs1   AUC(0-inf)           239
